- System: Saccharomyces cerevisiae
- PROCEDURE_DETAILS: protein stability index of tFT-peptide fusion (C-terminal peptide) (PSI (0-1 scale)); higher = more stable (slower turnover);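 note: PSI is a weighted mean of sequencing reads over stability bins, variants kept only with over 10 reads, mCherry proximal and sfGFP distal, peptide attached via GGGS linker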
- TEST_CONDITIONS: genetic background: wild type; temperature: 30 C

MACROMOLECULE_SEQUENCE	TESTED_TARGET	protein stability index
TTRHPRLHYIDP	Saccharomyces cerevisiae	0.674
WERRRGVCGGVW	Saccharomyces cerevisiae	0.707
TKSPYLTVNETA	Saccharomyces cerevisiae	0.686
GKVGGRMWVWRV	Saccharomyces cerevisiae	0.257
SSPLPPPHASHP	Saccharomyces cerevisiae	0.71
WVKGRVKIEGGQ	Saccharomyces cerevisiae	0.68
PFLTSPPPLPLH	Saccharomyces cerevisiae	0.632
IHTNICKSKDII	Saccharomyces cerevisiae	0.706
DRPYPTTFRSSR	Saccharomyces cerevisiae	0.66
LRESPPHLPFPP	Saccharomyces cerevisiae	0.701

====

- Tested on: Saccharomyces cerevisiae
- PROCEDURE_DETAILS: protein stability index of tFT-peptide fusion (C-terminal peptide) (PSI (0-1 scale)); higher = more stable (slower turnover)
- TEST_CONDITIONS: genetic background: das1 deletion; temperature: 30 C
Tick Met if protein stability index is 0.4 or greater. Tick Not met if protein stability index is less than 0.4.

MACROMOLECULE_SEQUENCE	CATEGORY
LLLLGVSLFLVR	Not met
LSYRFVFRFLLF	Met
RGRLKSSYFILF	Met
RVLILCLFFRWS	Not met
LPASLSLWPLLC	Met
SHWSMQATLQLV	Met
RPPHPPPATFLS	Met
TFLFPLPFLFFI	Not met
HSPRVLLPLYFR	Not met
NFVVYHVAIRVP	Not met
WCCCVSGFVWWM	Met
YVFSPWSCWASV	Met
KAIILGNIKINF	Met
LFDVLFVFSFIF	Met
VCLFRLVVFFPV	Not met
PSPPPPRPASPS	Met
RILSLQFILCKR	Met
AIPRWLALLVAH	Not met
VVWLFGVSWCWL	Not met
VLPLRCSWAAQG	Met
GMLIYVIGGLSH	Met
LFRFVFLLFGFW	Met
LPPHLPFPLSAA	Met
CWDNTLKTMRQM	Met
VSWSVSALIYLK	Not met
YSVFCPLFFIIY	Not met
RARFMLGVLLST	Met
LILFMLLSFLTT	Not met
LLAVIVWIVPPA	Not met
LFPVASLCLART	Met
TYCFRVCAWRAN	Met
LASFCSVCIFIS	Not met
GLGVIFFLLGYG	Not met
PCFACIAFVLFP	Not met
LFRNIFLFVFLI	Not met
GIISMYVARRLG	Met
DFHLPWPVALVW	Not met
LSLGVGSDAEGG	Met
LFFFFLPHLILL	Not met
VRVWLLACASKG	Not met
HCNRRNKIYWYS	Met
PPPPTPRPLLPP	Met
VSSFLLPFCLLF	Met
FFFLVRLCRLCV	Met
FCFYLLFLGFTR	Not met
GSLLWSGWSTCY	Met
LGATYSVQLYVS	Met
MALAVRVVTCGA	Not met
PSTLVITVVITK	Not met
GVRCRLVIRVLG	Not met
SFHTFFCPFFIL	Met
RWRDGVAWVVVC	Not met
FFFFFIHFLCYF	Not met
GLLVFRCINLRC	Met
CWLFCACFVRLV	Not met
FFVYRFFSLSVC	Not met
FFFFSVHLSFLD	Not met
GGGVWWGVLVLG	Not met
GWLSVLVYFLSG	Not met
VKSAVLLFFLVT	Not met
LSFFDYVLLQIA	Met
FLPLFFLPCLSV	Not met
ILRKTAFRLRVL	Met
KLRELQVRQQLS	Met
EKIIVAVLFVVP	Not met
LGNVTDVMHRLS	Met
SCCIYVALCRWL	Met
RVCWLRAFGFLV	Met
GRAVGLANFTIK	Met
MLVLFCLCYILG	Not met
CCSRYLSNLCPI	Met
PPPSRRLTLRLA	Met
YFVLVRLICFLL	Not met
TLDWKFGRGGIG	Not met
PACPPLPPRSPS	Met
PLSDPLRVILIM	Met
LCFVCLWGYLGV	Not met

====

The sequences listed here are annotated with their protein stability index.
- Tested on: Saccharomyces cerevisiae
- PROCEDURE_DETAILS: protein stability index of tFT-peptide fusion (C-terminal peptide) (PSI (0-1 scale)); higher = more stable (slower turnover)
- TEST_CONDITIONS: genetic background: wild type; temperature: 30 C

MACROMOLECULE_SEQUENCE	protein stability index
YTPPISRLLIFT	0.364
ACCGVFFFFFWL	0.35
WFVCSGVYGSVM	0.638
FFFWLLCAGWLL	0.534
YPRLVGGCWFRL	0.319
LFRFVFLLFGFW	0.423
LPASLSLWPLLC	0.0983
GPFVRSALIFIF	0.343
FFFFFLLFFLRV	0.233
VYCQRFMLLFTP	0.433
LPSPLLFLPALF	0.436
WFVFVFCSPRSS	0.406
GMGRVLVEVLLC	0.101
FSSWPFFSFYLS	0.392
FCFYLLFLGFTR	0.324
VWLFCLSRLYLL	0.101
PASYPPFIYLSI	0.418
GGYVTVTSVTVV	0.506
HSAIFLFFFFFG	0.296

====

- Test system: Saccharomyces cerevisiae
- PROCEDURE_DETAILS: protein stability index of tFT-peptide fusion (C-terminal peptide) (PSI (0-1 scale)); higher = more stable (slower turnover)
- TEST_CONDITIONS: genetic background: wild type; temperature: 30 C

MACROMOLECULE_SEQUENCE	TESTED_TARGET	protein stability index
SPPRAGTPTSRP	Saccharomyces cerevisiae	0.667
RRGRNDLEESMR	Saccharomyces cerevisiae	0.702
RFTIPFSVQRVD	Saccharomyces cerevisiae	0.721
VGLEVGPLVGGE	Saccharomyces cerevisiae	0.692
KTGNKKQRKKKV	Saccharomyces cerevisiae	0.753
DKYFRYKEERTY	Saccharomyces cerevisiae	0.766
CSEHFLIDTYPA	Saccharomyces cerevisiae	0.679
SRLPPHSPVHAS	Saccharomyces cerevisiae	0.787
PPSPRPPPPSPS	Saccharomyces cerevisiae	0.719
LTPFQGLHLPIP	Saccharomyces cerevisiae	0.745
PSPPFPPPSPPP	Saccharomyces cerevisiae	0.687
STVTSGCLKRIS	Saccharomyces cerevisiae	0.723
PLPPRSPPRRPS	Saccharomyces cerevisiae	0.634
GPTPSVKGDRDT	Saccharomyces cerevisiae	0.632
WMSGETTHTGRP	Saccharomyces cerevisiae	0.742
LPSLLIHLVSQT	Saccharomyces cerevisiae	0.668
QITSHRVISRLV	Saccharomyces cerevisiae	0.546
RICTLCRGGRTP	Saccharomyces cerevisiae	0.673
PNPEKPPGAPGQ	Saccharomyces cerevisiae	0.63
GGSRGWGAAAGR	Saccharomyces cerevisiae	0.766
VGAGAGGVGWVL	Saccharomyces cerevisiae	0.749
FSCPALCSCLAV	Saccharomyces cerevisiae	0.604
PPPAPPPPPPLP	Saccharomyces cerevisiae	0.703
APGGACINIQLM	Saccharomyces cerevisiae	0.663
LQCCVAVTNYCV	Saccharomyces cerevisiae	0.54
LAMALRGGLYFS	Saccharomyces cerevisiae	0.701
YNTVALRITLIT	Saccharomyces cerevisiae	0.348
VIPREPSEPHTA	Saccharomyces cerevisiae	0.639
GKGEERGVATRT	Saccharomyces cerevisiae	0.657
RKVVLLFGLGEG	Saccharomyces cerevisiae	0.669
NMPGALETKMGV	Saccharomyces cerevisiae	0.599
VAWYSLAEGCEG	Saccharomyces cerevisiae	0.641
GSANIDQEGVQY	Saccharomyces cerevisiae	0.781
RPGPRAASADCP	Saccharomyces cerevisiae	0.72
WVSILRWDACSR	Saccharomyces cerevisiae	0.685
KSVGKGIIQLRL	Saccharomyces cerevisiae	0.726
DFIAGGSRPFLV	Saccharomyces cerevisiae	0.715
VCLFFFGYWCCL	Saccharomyces cerevisiae	0.501
PHSPPSLSPTPP	Saccharomyces cerevisiae	0.685
WLFSSRDSGACR	Saccharomyces cerevisiae	0.803
WGALVLAVRSAP	Saccharomyces cerevisiae	0.642
RARQYTTAMIQS	Saccharomyces cerevisiae	0.469
RGRLKSSYFILF	Saccharomyces cerevisiae	0.497
EHERQQYKNYNK	Saccharomyces cerevisiae	0.671
VGAGVFAWLWVA	Saccharomyces cerevisiae	0.199
YGPDQIGPRPGL	Saccharomyces cerevisiae	0.69
FMHCLLAQFAGL	Saccharomyces cerevisiae	0.705
LSPLRPPAPSVF	Saccharomyces cerevisiae	0.646
GGRGRVGEMGGR	Saccharomyces cerevisiae	0.677
STPPPPHSASRS	Saccharomyces cerevisiae	0.728
YSVLVSLLPPSL	Saccharomyces cerevisiae	0.681
PSALLGTCRCVQ	Saccharomyces cerevisiae	0.706
IFWRGVVDVCSG	Saccharomyces cerevisiae	0.584
RPPPPLPQAPPT	Saccharomyces cerevisiae	0.679
PTTVSRPPPPSP	Saccharomyces cerevisiae	0.711
LGFPLPRTPSIT	Saccharomyces cerevisiae	0.792
KPKLSHPQPLRI	Saccharomyces cerevisiae	0.699
RQSLEDSLLHQH	Saccharomyces cerevisiae	0.774
PRGPPPPAPPPT	Saccharomyces cerevisiae	0.689
KEQNKKQKAKDL	Saccharomyces cerevisiae	0.719
VLPLRCSWAAQG	Saccharomyces cerevisiae	0.39
SGGVLSNGRLAA	Saccharomyces cerevisiae	0.684
RPIFAYRPLRFL	Saccharomyces cerevisiae	0.342
GGPGGGRPGPRA	Saccharomyces cerevisiae	0.697
GEECGRERLMCF	Saccharomyces cerevisiae	0.729
VDSSGSQPRGNR	Saccharomyces cerevisiae	0.648
LRFRCGNSRILS	Saccharomyces cerevisiae	0.724
PRPPNPRPPPPP	Saccharomyces cerevisiae	0.729
CLLVCCCFYRNV	Saccharomyces cerevisiae	0.469
YGMETVAVYTEG	Saccharomyces cerevisiae	0.666
RQKNKIATVVEE	Saccharomyces cerevisiae	0.664
PLSASPLPPFSR	Saccharomyces cerevisiae	0.734
TRDTEKTGRREP	Saccharomyces cerevisiae	0.715
ELRSVLDRDVRV	Saccharomyces cerevisiae	0.725
SPRLSAPPPPPP	Saccharomyces cerevisiae	0.677
RTGGIVATRASE	Saccharomyces cerevisiae	0.779
GIPYGWLLCFPR	Saccharomyces cerevisiae	0.813
VRNPPPLTRTRP	Saccharomyces cerevisiae	0.687
YTTLLVSTNRLS	Saccharomyces cerevisiae	0.477
TPKTTGRPCDRT	Saccharomyces cerevisiae	0.69
DARLSPVRNRLF	Saccharomyces cerevisiae	0.652
RLMVHQHTIPVR	Saccharomyces cerevisiae	0.445
